# Test system: 997726-040-R-J2-PDC tumor spheroids, viability
# MEASUREMENT PROTOCOL: Anticancer human tumor 997726-040-R-J2-PDC patient-derived squamous cell lung carcinoma cell line growth inhibition [PI3K]
# EXPERIMENTAL SETUP: second compound 10 µM; first compound 0.0316 µM; hits give low values; spheroids with HUVEC and MSC
MEASURED PARAMETER: viability, T/C (%)
Answer with a number only, understood to be in %.

COMPOUND	TESTED TARGET	NUMBER
Cn1nccc1Nc1nccc(-c2ccn(C(CO)c3ccc(Cl)c(F)c3)c(=O)c2)n1 (stereo not drawn) + CC(Nc1ncnc2nc[nH]c12)c1cc2cccc(Cl)c2c(=O)n1-c1ccccc1	997726-040-R-J2-PDC tumor spheroids, viability	56.2

Recall and state the measured viability, T/C for CC(C)n1nc(-c2ccc3oc(N)nc3c2)c2c(N)ncnc21 + Cc1nc(NC(=O)N2CCCC2C(N)=O)sc1-c1ccnc(C(C)(C)C(F)(F)F)c1 .
4.53

Please give the documented viability, T/C of C#Cc1c(F)ccc2cc(O)cc(-c3ncc4c(N5CC6CCC(C5)N6)nc(OCC56CCCN5CC(F)C6)nc4c3F)c12 (stereo not drawn) + Cc1nc(NC(=O)N2CCCC2C(N)=O)sc1-c1ccnc(C(C)(C)C(F)(F)F)c1
15.8

* * *

# Test system: 997726-040-R-J2-PDC tumor spheroids, viability
# MEASUREMENT PROTOCOL: Anticancer human tumor 997726-040-R-J2-PDC cell line growth inhibition [PI3K];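 note: spheroids exposed to compounds for seven days before readout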
# EXPERIMENTAL SETUP: second compound 0.00316 µM; first compound 1 µM; hits give low values; spheroids with HUVEC and MSC
Label Met when viability, T/C is strictly below 80%; otherwise label Not met.

COMPOUND	ASSIGNED CLASS
CCCS(=O)(=O)Nc1ccc(F)c(C(=O)c2c[nH]c3ncc(-c4ccc(Cl)cc4)cc23)c1F + CC(Nc1ccc2c(c1)OCCn1cc(N3C(=O)OCC3C(F)F)nc1-2)C(N)=O	Not met

Is it true that viability, T/C reported for C=CC(=O)N1CCN(c2nc(=O)n(-c3c(C)ccnc3C(C)C)c3nc(-c4c(O)cccc4F)c(F)cc23)C(C)C1 (stereo not given) + COc1c(OCCCN2CCOCC2)ccc2c3n(c(=NC(=O)c4cnc(N)nc4)nc12)CCN3 is less than 80%?
Met

Quick check: viability, T/C of CC1(C)CCC(Nc2ncc(C(F)(F)F)c(-c3c[nH]c4c(P(C)(C)=O)c(C#N)ccc34)n2)CN1 (stereo not given) + CC(Nc1ccc2c(c1)OCCn1cc(N3C(=O)OCC3C(F)F)nc1-2)C(N)=O under 80%?
Met

State whether 80% exceeds viability, T/C recorded for C=CC(=O)N1CCN(c2nc(=O)n(-c3c(C)ccnc3C(C)C)c3nc(-c4c(O)cccc4F)c(F)cc23)C(C)C1 (stereo not given) + CC(Nc1ccc2c(c1)OCCn1cc(N3C(=O)OCC3C(F)F)nc1-2)C(N)=O .
Not met

Please state whether viability, T/C is below 80% for CC1(C)CCC(Nc2ncc(C(F)(F)F)c(-c3c[nH]c4c(P(C)(C)=O)c(C#N)ccc34)n2)CN1 (stereo not given) + COc1c(OCCCN2CCOCC2)ccc2c3n(c(=NC(=O)c4cnc(N)nc4)nc12)CCN3
Met

Consider C#Cc1c(F)ccc2cc(O)cc(-c3ncc4c(N5CC6CCC(C5)N6)nc(OCC56CCCN5CC(F)C6)nc4c3F)c12 (stereo not given) + COc1c(OCCCN2CCOCC2)ccc2c3n(c(=NC(=O)c4cnc(N)nc4)nc12)CCN3 . Does its viability, T/C lie strictly below 80%?
Met

# TODO verify viability, T/C < 80% strictly for this compound: CCN1CCN(Cc2ccc(Nc3ncc(F)c(-c4cc(F)c5nc(C)n(C(C)C)c5c4)n3)nc2)CC1 + COc1c(OCCCN2CCOCC2)ccc2c3n(c(=NC(=O)c4cnc(N)nc4)nc12)CCN3
Met

Strictly below 80% in viability, T/C? CC(C)NCC(C(=O)N1CCN(c2ncnc3c2C(C)CC3O)CC1)c1ccc(Cl)cc1 (stereo not given) + COc1c(OCCCN2CCOCC2)ccc2c3n(c(=NC(=O)c4cnc(N)nc4)nc12)CCN3
Met

Could you please tell me whether viability, T/C recorded for C#Cc1c(F)ccc2cc(O)cc(-c3ncc4c(N5CC6CCC(C5)N6)nc(OCC56CCCN5CC(F)C6)nc4c3F)c12 (stereo not given) + CC(Nc1ccc2c(c1)OCCn1cc(N3C(=O)OCC3C(F)F)nc1-2)C(N)=O is less than 80%?
Not met
